- Tested on: XIP peptide (Xip251-270)
- protocol: compounds binding XIP fragment 251-270 – biochemical, small-molecule microarray, fluorescence 635/667 nm, 0.5 µg/mL protein, primary screen (AID 1183)
- run.parameters: fluorescence 635 nm, higher = more signal
parameter.measured: composite z-score
Note: the reply should be a number with no unit written.

Worked cases, answers included:
>  <molecule>
CCCCCCCCCCC(O)C1C=CC2C(=O)NC(=O)C2N1Nc1ccccn1 (stereo not given)

>  <composite z-score>
-0.0706

$$$$
>  <molecule>
CC(C)N1CC=CC23O[C@@H]4C=CCOC(=O)[C@@H]4[C@H]2C(=O)N(CCCCCCO)[C@@H]3C1=O (stereo not given in full)

>  <composite z-score>
-0.262

$$$$
>  <molecule>
Cc1ccc(S[C@]2(C(=O)NCC(C)C)CC(=O)N(C3CCCCC3)[C@@H]2c2ccc(CO)cc2I)cc1

>  <composite z-score>
0.254

$$$$
>  <molecule>
CC(C)C[C@H]1NC(=O)[C@H](C)NC(=O)[C@@]23C(=O)N[C@@H](Cc4ccccc4)C2[C@H](C)[C@@]2(C)O[C@H]2C3/C=C/C/C=C\CNC1=O (stereo not given in full)

>  <composite z-score>
0.685

$$$$

composite z-score reading for Cc1ccc(S[C@]2(C(=O)O)CC(=O)N(C3CCCCC3)[C@@H]2c2ccc(CO)cc2)cc1 : 0.929

###

- protocol: growth effects on S. cerevisiae YJM789 – YJM789 clinical isolate, OD600, 24 h, basal, primary screen (AID 1089);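 further: growth of clinical yeast isolate S. cerevisiae YJM 789 seeded 1000 cells per well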
- run.parameters: higher = more signal, called active from +8 up or from −8 down
parameter.measured: z-score
Note: the reply should be a number with no unit written.

Worked cases, answers included:
>  <compound>
COC(=O)[C@@]1(Cc2ccccc2)[C@H]2c3cc(C(=O)N(C)C)n(Cc4ccc(O)c(OC)c4)c3C[C@H]2CN1C(=O)c1ccccc1

>  <z-score>
0.473

$$$$
>  <compound>
CCC[C@@H]1C[C@@]1(CCC)[C@@H](NC(=O)c1cccs1)c1ccc(Cl)cc1

>  <z-score>
-0.5

$$$$
>  <compound>
CCN(CC)c1ccc(N2CC=CC34O[C@@H]5/C=C\CCCOC(=O)C5[C@H]3C(=O)N(CCCCCCO)[C@@H]4C2=O)cc1 (some centres undefined)

>  <z-score>
-2.29

$$$$

Would you kindly look at the next entry?
z-score reading for COc1ccc([Si](C)(C)[C@@H]2[C@@H](CC(=O)N3Cc4ccccc4C[C@H]3CO)O[C@]3(C(=O)N(Cc4cccc(N5CCCCC5=O)c4)c4ccccc43)[C@H]2C)cc1 : 0.318

###

- Tested on: PRMT1 (protein arginine N-methyltransferase 1)
- protocol: small molecules binding arginine methyltransferase PRMT1 – biochemical, small-molecule microarray, 635 nm fluorescence, primary screen (AID 1088);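 further: binding of Prmt1 protein to compounds spotted on small-molecule microarray slides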
- run.parameters: higher = more signal
parameter.measured: composite z-score
Note: the reply should be a number with no unit written.

Worked cases, answers included:
>  <compound>
CCCN1C(=O)[C@@]2(Cc3ccccc3)N=C(c3ccc(OCCCO)cc3)O[C@H]2c2ccccc21

>  <measurement.target>
PRMT1 (protein arginine N-methyltransferase 1)

>  <composite z-score>
1.54

$$$$
>  <compound>
C=CCNC(=O)[C@H]1[C@@H]2C(=O)O[C@@H](c3ccccc3)[C@@H](c3ccccc3)N2[C@@H](c2ccc(OCCO)cc2)[C@]12C(=O)N(C(=O)OCCOC)c1ccc(C#CC3=CCCCC3)cc12

>  <measurement.target>
PRMT1 (protein arginine N-methyltransferase 1)

>  <composite z-score>
1.55

$$$$
>  <compound>
O=C1c2ccccc2C(=O)C2CC([C@H]3Oc4ccccc4S(=O)(=O)N4CCC[C@@H]34)=CCC12 (stereo partly drawn)

>  <measurement.target>
PRMT1 (protein arginine N-methyltransferase 1)

>  <composite z-score>
-0.739

$$$$
>  <compound>
CCOC(=O)C1=CC[C@@H](c2cccc(Br)c2)N(S(=O)(=O)c2ccc(C)cc2)[C@H]1c1ccc([N+](=O)[O-])cc1

>  <measurement.target>
PRMT1 (protein arginine N-methyltransferase 1)

>  <composite z-score>
1.53

$$$$
>  <compound>
COC(=O)C(CC#Cc1ccc2c(c1)[C@]1(C(=O)N2)[C@H](C(=O)N2CCc3cc(OC)c(OC)cc3C2)[C@H]2C(=O)O[C@H](c3ccccc3)[C@H](c3ccccc3)N2[C@@H]1c1ccc(OCCO)cc1)C(=O)OC

>  <measurement.target>
PRMT1 (protein arginine N-methyltransferase 1)

>  <composite z-score>
1.55

$$$$

composite z-score reading for O=C(C=C(CC(O)c1cccc(Cl)c1)OCCF)OCCF (stereo not drawn) : -1.87

composite z-score reading for CC(C)C[C@@H]1NC(=O)[C@@H]2C[C@H](C(=O)NCCCC[N+](C)(C)C)[C@H](c3cccc(OCCO)c3)N2C1=O : 1.31

composite z-score reading for COC(=O)C(CC#Cc1ccc2c(c1)[C@]1(C(=O)N2)[C@H](c2ccc(O)cc2)N2[C@H](c3ccccc3)[C@H](c3ccccc3)OC(=O)[C@H]2[C@@H]1C(=O)O)C(=O)OC : 0.439

composite z-score reading for COCCOC(=O)N1C(=O)[C@@]2(c3ccccc31)[C@H](c1ccccc1OCCO)N1[C@H](c3ccccc3)[C@H](c3ccccc3)OC(=O)[C@H]1[C@@H]2C(=O)N1CCc2cc(OC)c(OC)cc2C1 : 1.52

composite z-score reading for COC(=O)[C@@]1(Cc2ccccc2N=[N+]=[N-])N=C(c2ccc(OCCCO)cc2)O[C@H]1c1ccccc1 : 1.14

composite z-score reading for CCOC(=O)C1=CC[C@@H](c2ccc(N(CC)CC)cc2)N(S(=O)(=O)c2ccc(C)cc2)[C@H]1c1ccc([N+](=O)[O-])cc1 : 0.554

composite z-score reading for CN(C)C(=O)[C@@]1(CCC(=O)OC(C)(C)C)COC(c2ccc(OCCCO)cc2)=N1 : 1.32

composite z-score reading for NC(=O)NCC#Cc1ccc2c(c1)[C@]1(C(=O)N2)[C@H](c2ccc(OCCO)cc2)N2[C@H](c3ccccc3)[C@H](c3ccccc3)OC(=O)[C@H]2[C@@H]1C(=O)N1CCN(c2ncccn2)CC1 : 1.34

###

- protocol: small molecules captured by biotinylated probe aFGF10 – biochemical, small-molecule microarray, fluorescence 635/667, stem cell growth factor project, primary screen (AID 1071);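 further: score merges 667 nm spot intensity and signal to noise from triplicate slides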
- run.parameters: higher = more signal
composite z-score listing for selected compounds.
Note: the reply should be a number with no unit written.

>  <compound>
C=CCOC(=O)[C@H]1[C@@H]2C(=O)O[C@@H](c3ccccc3)[C@@H](c3ccccc3)N2[C@@H](c2ccc(OCCOC(=O)[C@H]3C[C@H]4C(=O)N[C@@H](CCCCN(C)C)C(=O)N4[C@H]3c3ccc(O)cc3)cc2)[C@]12C(=O)Nc1ccccc12

>  <composite z-score>
0.445

$$$$
>  <compound>
COCCCNC(=O)[C@@]1(Cc2ccccc2CN=[N+]=[N-])N=C(c2ccc(OCCCO)cc2)O[C@H]1c1ccccc1N=[N+]=[N-]

>  <composite z-score>
1.18

$$$$
>  <compound>
[N-]=[N+]=Nc1ccccc1[C@@H]1OC(c2ccc(OCCCO)cc2)=N[C@]1(CCS(=O)(=O)c1ccccc1)C(=O)NCc1ccccc1

>  <composite z-score>
0.655

$$$$

composite z-score reading for Cc1ccccc1C(O)C1C=CC2C(=O)N(C)C(=O)C2N1Nc1ccc([N+](=O)[O-])cc1[N+](=O)[O-] (centres undefined) : 0.922

composite z-score reading for C[C@@H]1ON(c2ccccc2)[C@H](c2ccccc2)[C@H]1C(=O)N1C(=O)OC[C@H]1Cc1ccccc1 : 0.464

composite z-score reading for COc1ccc([Si](C)(C)[C@@H]2[C@@H](CC(=O)N(CCO)Cc3ccccc3)O[C@]3(C(=O)N(C)c4c(Br)cc(C)cc43)[C@H]2C)cc1 : 0.33

composite z-score reading for COc1ccccc1CN1C(=O)c2ccccc2[C@@H](C(=O)NCC(C)C)[C@@H]1c1ccc(CO)cc1 : -0.0779

composite z-score reading for O=C1OCC=C[C@H]2OC34C=CCN(CCN5CCOCC5)C(=O)[C@H]3N(CCCCCO)C(=O)[C@@H]4[C@@H]12 (some centres undefined) : -0.191

###

composite z-score listing for selected compounds.
- Tested on: Sam68 (KHDRBS1)
- protocol: compounds binding KHDRBS1 protein – biochemical, small-molecule microarray, 635 nm fluorescence, primary screen (AID 1125);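 further: score merges 667 nm channel intensity with signal to noise over triplicate slides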
- run.parameters: higher = more signal
Note: the reply should be a number with no unit written.

>  <compound>
CC[C@@H]1[C@@H]2C3C(=O)N(CC)C(=O)C3CC(=O)[C@@H]2[C@H](c2ccc(C)cc2)N1S(=O)(=O)c1ccc(C)cc1 (stereo partly drawn)

>  <endpoint.result>
1.34

$$$$

I looked up O=[N+]([O-])c1ccc(C[n+]2ccc(-c3ccc(CO)cc3)cc2)o1 and its composite z-score for Sam68 (KHDRBS1) was 0.649

I looked up [N-]=[N+]=NCc1ccccc1C[C@@]1(C(=O)NCCN2CCOCC2)N=C(c2ccc(OCCCO)cc2)O[C@@H]1c1ccccc1CN=[N+]=[N-] and its composite z-score for Sam68 (KHDRBS1) was 1.31

I looked up COCCOC(=O)N1C(=O)[C@@]2(c3cc(C#CCC(C(=O)OC)C(=O)OC)ccc31)[C@H](C(=O)N1CCCCCCC1)[C@H]1C(=O)O[C@H](c3ccccc3)[C@H](c3ccccc3)N1[C@@H]2c1ccc(O)cc1 and its composite z-score for Sam68 (KHDRBS1) was 1.31

I looked up COCCOC(=O)N1C(=O)[C@@]2(c3cc(C#CC4(O)CCCCCC4)ccc31)[C@H](C(=O)N1CCN(c3ncccn3)CC1)[C@H]1C(=O)O[C@H](c3ccccc3)[C@H](c3ccccc3)N1[C@@H]2c1ccc(O)cc1 and its composite z-score for Sam68 (KHDRBS1) was 1.22

I looked up C=CC[C@@]1(C(=O)NCC(O)CO)N=C(c2ccc(OCCCO)cc2)O[C@@H]1c1ccccc1 (stereo partly drawn) and its composite z-score for Sam68 (KHDRBS1) was 1.22
